B1: tRNA (parent)
chain: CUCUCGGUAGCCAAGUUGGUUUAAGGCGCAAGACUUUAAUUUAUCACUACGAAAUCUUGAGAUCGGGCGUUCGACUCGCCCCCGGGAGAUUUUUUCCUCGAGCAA

variants of: B1; test: nonsense suppression (GFP-seq) (ratio to wild type); higher = more function; SUP4oc tRNA, yeast GFP reporter sort-seq
This sample holds only a part of the variants without activity.
# maps each entry to its nonsense suppression
parameter_measured: nonsense suppression

CUCUCGGUAGCCAAGUCGGUUUAAGGCGCAAGACUUUAAUUUAUCACUACGAAAUCUUGGGAUCGGGCGUUCGACUCGCCCCCGGGAGAUUUUUUCCUCGAGCAA [U17C A60G] = 0.411
CUCUCGGGAGCCAAGUUGGUUUAAGGCGCAAGACUUUAAUUUAUCACUACGAAAUCUUGAGAUCGGGCGUUCGACUCGCCCCCGGGAAAUUUUUUCCUCGAGCAA [U8G G88A] = 0.228
CUCUCGGUAGCCAAGUAGGUUUAAGGCGCAAGACUUUAAUUUAUCACUACGAAAUCUUGAAAUCGGGCGUUCGACUCGCCCCCGGGAGAUUUUUUCCUCGAGCAA [U17A G61A] = 0.83
CUCUCGGUAGCCAAGUUGGUUUAAGGCGCAAGACUUUAAUUUAUCACUACGAAAUCUUGAGAUCGGGCGUUCAACUCGCCCCCGUGAGAUUUUUUCCUCGAGCAA [G73A G85U] = 0.285
CUCCCGGUAGCCAUGUUGGUUUAAGGCGCAAGACUUUAAUUUAUCACUACGAAAUCUUGAGAUCGGGCGUUCGACUCGCCCCCGGGAGAUUUUUUCCUCGAGCAA [U4C A14U] = 0.0343
CUCUCGGUAGCCAAGUGGGUUUAAGGCGCAAGACUUUAAUUUAUCACUACGAACUCUUGAGAUCGGGCGUUCGACUCGCCCCCGGGAGAUUUUUUCCUCGAGCAA [U17G A54C] = 0.64
CUCUCGGUGGCCAAGUUGGUAUAAGGCGCAAGACUUUAAUUUAUCACUACGAAAUCUUGAGAUCGGGCGUUCGACUCGCCCCCGGGAGAUUUUUUCCUCGAGCAA [A9G U21A] = 0.36
CUCUCGGUAGCCAAGUUGGUUUGAGGCGCAAGACUUUAAUUUAUCACUACGAAAUCUUGACAUCGGGCGUUCGACUCGCCCCCGGGAGAUUUUUUCCUCGAGCAA [A23G G61C] = 0.113
CUCUCGGUAGCCAAGUUGGUUUAAGGCGCAAGACUUUAAUUUAUCACUACGAAAUCUUGAGAUCGGGCGUUCGACCCGCCCCCGGGGGAUUUUUUCCUCGAGCAA [U76C A87G] = 0.932
CUCUCGGUAGCUAAGUUGGUUUAAGGUGCAAGACUUUAAUUUAUCACUACGAAAUCUUGAGAUCGGGCGUUCGACUCGCCCCCGGGAGAUUUUUUCCUCGAGCAA [C12U C27U] = 0.121
CUCGCGGUAGCCAAGUUGGUUUAAGGCGCAAGACUUUAAUUUAUCACUACGAAAUCUUGAGAUCGGGCGUUCGACUAGCCCCCGGGAGAUUUUUUCCUCGAGCAA [U4G C77A] = 0.0479
CUCUCGGUAGCCAAGUUGGUUUAAGGCGUAAGACUUUAAUUUAUCACUACGAAAUCUUGAGAUCGGGCGUUCGACUCGCCCCCAGGAGAUUUUUUCCUCGAGCAA [C29U G84A] = 0.0288
CUCUCGGUAGCCAAGUUGGUUUAUGGCGCAAGACUUUAAUUUAUCACUACGAAAUCUUGAGUUCGGGCGUUCGACUCGCCCCCGGGAGAUUUUUUCCUCGAGCAA [A24U A62U] = 0.0332

These data points were gathered from the RNAGym collection of RNA variant scans (doi:10.1101/gad.245936.114).
